Source: patent US11377442B2

target: NR2F6 (Homo sapiens); construct: expressed in transfected cells; also transient transfection; experiment: NR2F6 agonist screening, Firefly signal cmpd/DMSO; assay type: cell-based; conditions: Table 9; repeat 2
parameter: Firefly, cmpd/DMSO repeat 2

Answered examples (3):
compound	assay.target	measured.number
COc1cccc(S(=O)(=O)c2cc3cccc(OC)c3oc2=O)c1 [Compound C226]	NR2F6 (Homo sapiens)	1.0
COc1cccc2cc(S(=O)(=O)c3ccc(C)c(Cl)c3)c(=O)oc12 [Compound C228]	NR2F6 (Homo sapiens)	1.3
COc1cccc2cc(S(=O)(=O)c3ccc(Br)cc3)c(=O)oc12 [Compound C233]	NR2F6 (Homo sapiens)	2.1

1. CCOc1cccc2cc(S(=O)(=O)c3ccc(F)c(Cl)c3)c(=O)oc12 [Compound C251]
2. CCOc1cccc2cc(S(=O)(=O)c3ccc(C)cc3)c(=O)oc12 [Compound C236]
3. CCOc1cccc2cc(S(=O)(=O)c3ccc(F)cc3)c(=O)oc12 [Compound C237]
4. COc1cccc2cc(S(=O)(=O)c3ccc(C)cc3)c(=O)oc12 [Compound C231]
Prompt: Put the compounds in ascending order of Firefly, cmpd/DMSO repeat 2. Sort the labels as requested; that list is your answer.
Response: 4, 1, 3, 2
(4: 0.9, 1: 1.9, 3: 2.9, 2: 4.9)

A. COc1ccc(OC)c(S(=O)(=O)c2cc3cccc(OC)c3oc2=O)c1 [Compound C249]
B. CCOc1cccc2cc(S(=O)(=O)c3ccc(Cl)cc3)c(=O)oc12 [Compound C244]
C. CCOc1cccc2cc(S(=O)(=O)c3ccc(C)c(C)c3)c(=O)oc12 [Compound C243]
D. CCOc1cccc2cc(S(=O)(=O)c3ccccc3F)c(=O)oc12 [Compound C254]
Prompt: Put the compounds in ascending order of Firefly, cmpd/DMSO repeat 2. Sort the labels as requested; that list is your answer.
Response: A, C, D, B

A. COc1cccc2cc(S(=O)(=O)c3ccc(Cl)c(Cl)c3)c(=O)oc12 [Compound C245]
B. COc1ccc(S(=O)(=O)c2cc3cccc(OC)c3oc2=O)cc1 [Compound C232]
C. COc1cccc2cc(S(=O)(=O)c3ccc(C(C)C)cc3)c(=O)oc12 [Compound C241]
D. CCOc1cccc2cc(S(=O)(=O)c3ccc(OC)c(OC)c3)c(=O)oc12 [Compound C248]
Prompt: Put the compounds in ascending order of Firefly, cmpd/DMSO repeat 2. Sort the labels as requested; that list is your answer.
Response: B, A, C, D

* * *

target: ERα (Homo sapiens); construct: expressed in transfected cells; assay: Counterscreening, Firefly signal with ERα transient transfection (Firefly_ERa); format: cell-based; conditions: 2 uM
Sequence (P03372 whole entry, species assumed): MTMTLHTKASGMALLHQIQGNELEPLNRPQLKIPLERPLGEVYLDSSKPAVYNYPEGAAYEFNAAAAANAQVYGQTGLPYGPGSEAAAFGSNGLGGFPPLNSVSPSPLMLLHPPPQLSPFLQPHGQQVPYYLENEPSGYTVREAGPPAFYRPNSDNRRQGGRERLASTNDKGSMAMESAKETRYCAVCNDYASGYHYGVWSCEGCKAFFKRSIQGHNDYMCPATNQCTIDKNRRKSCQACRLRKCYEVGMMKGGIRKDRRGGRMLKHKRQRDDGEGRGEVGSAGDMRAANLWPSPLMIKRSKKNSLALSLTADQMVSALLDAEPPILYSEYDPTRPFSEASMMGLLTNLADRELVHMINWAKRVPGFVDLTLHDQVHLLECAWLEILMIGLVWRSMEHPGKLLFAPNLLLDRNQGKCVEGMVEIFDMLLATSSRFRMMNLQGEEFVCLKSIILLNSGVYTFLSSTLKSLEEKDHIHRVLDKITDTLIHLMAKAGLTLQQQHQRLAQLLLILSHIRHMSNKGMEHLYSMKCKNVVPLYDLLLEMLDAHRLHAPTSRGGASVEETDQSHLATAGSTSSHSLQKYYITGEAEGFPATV
parameter: Firefly ERalpha transient, cmpd/DMSO (mean)

Answered examples (3):
compound	assay.target	measured.number
N#Cc1c(C(F)(F)F)nc2ccc(Oc3ccccc3)cc2c1N1CCNCC1	ERα (Homo sapiens)	1.3
O=c1cccc2n1CCN(c1nc(NCC3CCCO3)nc(N3CCCC3)n1)C2 (centres unmarked)	ERα (Homo sapiens)	2.3
COc1nc(NCCC2=CCCCC2)nc(N2CC3CC(C2)c2cccc(=O)n2C3)n1 (centres unmarked)	ERα (Homo sapiens)	0.8

a. O=c1cccc2n1CCN(c1nc(NCC3CCCO3)nc(N3CCOCC3)n1)C2 (centres unmarked)
b. CCOC(=O)c1cnc2c(Cl)cc(Cl)cc2c1NCCCN(C)C
Prompt: Compare reported Firefly ERalpha transient, cmpd/DMSO (mean) values for a and b . Which is lower? Kindly give the label for the entry you pick.
Response: a
(a: 1.3, b: 2.6)

* * *

assay: PK in rat plasma; assay type: in vivo; conditions: rat; Table 36; PO plasma, 7.53 mg/kg
parameter: Cmax (ng/mL)
Please respond with the number in ng/mL and leave the unit unwritten.

Prompt: Which Cmax is reported for this compound? COCCN[C@H]1CS(=O)(=O)C[C@@H]1S(=O)(=O)c1ccc(Cl)cc1 [Compound D136]
Response: 165

* * *

system: Renilla_ERa; assay: Renilla signal in ERα counterscreen (Renilla_ERa); assay type: cell-based; conditions: 10 uM; read-out: Renilla ERalpha transient, cmpd/DMSO (mean)
Measured fold induction at 10 µM, listed per entry for reference.
Please reply with the value in numeric form only.

compound	assay.target	measured.number
COc1ccc2nc(C(F)(F)F)c(C#N)c(NCCc3ccc(Cl)cc3)c2c1 [Compound Z39]	Renilla_ERa	0.6

Prompt: Which fold induction at 10 µM is reported for this compound? CCOC(=O)c1cnc2c(Cl)cc(Cl)cc2c1NCCCN1CCCCC1 [Compound Z37]
Response: 1.7

Prompt: Which fold induction at 10 µM is reported for this compound? COC(=O)CNc1c(C#N)c(C(F)(F)F)nc2ccc(OC)cc12 [Compound Z46]
Response: 1

Prompt: Which fold induction at 10 µM is reported for this compound? O=C(O)c1ccc(-n2ncc(Cl)c(Cl)c2=O)cc1 [Compound 44]
Response: 1.2

Prompt: Which fold induction at 10 µM is reported for this compound? Cc1cc(C)nc(Nc2nc(-c3ccccc3)c(CC(=O)O)s2)n1 [Compound 29]
Response: 1

Prompt: Which fold induction at 10 µM is reported for this compound? CNC(=O)c1cnc2c(C)cc(C)cc2c1NCCCN(C)C [Compound Z30]
Response: 1.1

Prompt: Which fold induction at 10 µM is reported for this compound? Cc1cc(-c2ccccc2)nc(Nc2nc(-c3ccccc3)c(CC(=O)O)s2)n1 [Compound 30]
Response: 1.2

Prompt: Which fold induction at 10 µM is reported for this compound? O=c1cccc2n1CC1CC2CN(c2nc(N3CCOCC3)nc(N3CCOCC3)n2)C1 (stereo not drawn) [Compound 31]
Response: 1.1

Prompt: Which fold induction at 10 µM is reported for this compound? N#Cc1c(C(F)(F)F)nc2ccc(Cl)cc2c1N1CCOCC1 [Compound Z43]
Response: 1

* * *

Target: NR2F6 (Homo sapiens, UniProt P10588)
Construct: expressed in transfected cells; also transient transfection
Sequence (P10588 1-404): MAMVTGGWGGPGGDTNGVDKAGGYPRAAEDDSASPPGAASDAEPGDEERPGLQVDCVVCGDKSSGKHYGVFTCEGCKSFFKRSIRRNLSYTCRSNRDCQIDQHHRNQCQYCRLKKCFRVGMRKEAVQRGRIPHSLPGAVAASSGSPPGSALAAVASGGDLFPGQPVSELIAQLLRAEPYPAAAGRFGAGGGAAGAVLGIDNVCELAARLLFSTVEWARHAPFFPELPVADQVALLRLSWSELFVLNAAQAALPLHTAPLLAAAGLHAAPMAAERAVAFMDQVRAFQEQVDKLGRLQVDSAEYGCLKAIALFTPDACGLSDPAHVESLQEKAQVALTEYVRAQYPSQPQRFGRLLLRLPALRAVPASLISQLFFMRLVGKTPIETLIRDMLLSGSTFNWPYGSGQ
Assay: NR2F6 agonist screening, Firefly signal cmpd/DMSO
Format: cell-based
Settings: Table 15; 2 uM
parameter: Firefly F4, cmpd/DMSO (mean)

Answered examples (3):
molecule	Firefly F4, cmpd/DMSO (mean)
CCOC(=O)c1cnc2c(C)cc(C)cc2c1NCCCN1CCCCC1 [Compound Z9]	2.5
Cc1ccc(NC(=O)c2n[nH]c3c2CCCCC3)cc1C [Compound Z2]	1.4
CCOC(=O)c1cnc2c(C)cc(C)cc2c1N1CCC(C)CC1 [Compound Z76]	0.8

I. Cc1ccc(NC(=O)c2noc3c2CC(C)(C)CC3)cc1C [Compound Z1]
II. CCOC(=O)c1cnc2c(C)cc(C)cc2c1NCCCN [Compound Z58]
Prompt: Lab notebook, comparison: I versus II , higher Firefly F4, cmpd/DMSO (mean) goes to which? Kindly give the label for the entry you pick.
Response: I
(I: 1.9, II: 0.9)

* * *

target: NR2F6 (Homo sapiens, UniProt P10588); construct: expressed in transfected cells; also transient transfection; experiment: NR2F6 agonist screening, Firefly signal cmpd/DMSO; format: cell-based; settings: F4; 1% FBS; 0.5 uM
parameter: Firefly, F4, 1% FBS, cmpd/DMSO (mean)

molecule	Firefly, F4, 1% FBS, cmpd/DMSO (mean)
CCC(C)N[C@H]1CS(=O)(=O)C[C@@H]1S(=O)(=O)c1ccc(Cl)cc1 (some centres unmarked) [Compound D121]	1.5
CCC(C)N[C@H]1CS(=O)(=O)C[C@@H]1S(=O)(=O)c1ccc(C)cc1 (some centres unmarked) [Compound D113]	1.4
Cc1cc(S(=O)(=O)[C@H]2CS(=O)(=O)C[C@@H]2NCC2CCCO2)ccc1F (some centres unmarked) [Compound D115]	1.0
CC(=O)Nc1ccc(S(=O)(=O)[C@H]2CS(=O)(=O)C[C@@H]2NC2CC2)cc1 [Compound D133]	0.8
O=S1(=O)C[C@H](NC2CCCCC2)[C@@H](S(=O)(=O)c2ccccc2)C1 [Compound D111]	1.0
O=S1(=O)C[C@H](N2CCCC2)[C@@H](S(=O)(=O)c2ccc(Cl)cc2)C1 [Compound D122]	1.4
O=S1(=O)C[C@H](N2CCCCC2)[C@@H](S(=O)(=O)c2cccs2)C1 [Compound D105]	1.5
C[C@@H]1C[C@H](C)CN([C@H]2CS(=O)(=O)C[C@@H]2S(=O)(=O)c2ccccc2)C1 [Compound D112]	1.1
